Provenance of the data: ChEMBL document CHEMBL1152266

- Species on record: Rattus norvegicus
- Assay Overview: Selectivity ratio of Ki for rat alpha7 nAChR to Ki for rat alpha4beta2 nAChR
Threshold 200. Ratio Ki below it: Criterion met. Ratio Ki at it or above: Criterion not met.

- c1cncc(N2CC3CC(C2)N3)c1: Criterion met
- Brc1ccc(N2CC3CC(C2)N3)cn1: Criterion not met
- Clc1ccc(N2CC3CC(C2)N3)cn1: Criterion met
- Clc1ccc(N2CC3CC(C2)N3)nn1: Criterion met
- O=[N+]([O-])c1ccc(N2CC3CC(C2)N3)cc1: Criterion not met
- CN1C2CC1CN(c1ccc(Cl)nc1)C2: Criterion met

====

- Measured Target: Neuronal acetylcholine receptor; alpha4/beta2 (Rattus norvegicus, UniProt P09483+P12390)
- Sequence (P09483 whole entry): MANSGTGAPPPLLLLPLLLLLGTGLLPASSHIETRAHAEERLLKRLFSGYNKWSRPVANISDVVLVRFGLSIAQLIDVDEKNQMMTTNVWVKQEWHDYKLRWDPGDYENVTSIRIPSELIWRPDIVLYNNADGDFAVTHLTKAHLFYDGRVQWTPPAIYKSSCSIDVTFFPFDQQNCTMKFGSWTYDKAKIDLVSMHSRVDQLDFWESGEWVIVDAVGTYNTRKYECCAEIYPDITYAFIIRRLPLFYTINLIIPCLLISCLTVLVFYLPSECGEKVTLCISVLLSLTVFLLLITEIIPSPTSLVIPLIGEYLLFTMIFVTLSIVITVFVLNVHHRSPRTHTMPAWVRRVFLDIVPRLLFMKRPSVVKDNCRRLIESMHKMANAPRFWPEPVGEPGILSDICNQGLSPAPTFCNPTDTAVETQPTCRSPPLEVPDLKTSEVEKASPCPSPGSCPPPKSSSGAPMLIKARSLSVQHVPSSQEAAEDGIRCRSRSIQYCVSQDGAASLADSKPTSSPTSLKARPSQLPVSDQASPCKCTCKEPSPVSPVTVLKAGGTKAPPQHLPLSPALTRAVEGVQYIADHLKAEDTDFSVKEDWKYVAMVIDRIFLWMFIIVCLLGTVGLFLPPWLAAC
- Sequence (P12390 whole entry): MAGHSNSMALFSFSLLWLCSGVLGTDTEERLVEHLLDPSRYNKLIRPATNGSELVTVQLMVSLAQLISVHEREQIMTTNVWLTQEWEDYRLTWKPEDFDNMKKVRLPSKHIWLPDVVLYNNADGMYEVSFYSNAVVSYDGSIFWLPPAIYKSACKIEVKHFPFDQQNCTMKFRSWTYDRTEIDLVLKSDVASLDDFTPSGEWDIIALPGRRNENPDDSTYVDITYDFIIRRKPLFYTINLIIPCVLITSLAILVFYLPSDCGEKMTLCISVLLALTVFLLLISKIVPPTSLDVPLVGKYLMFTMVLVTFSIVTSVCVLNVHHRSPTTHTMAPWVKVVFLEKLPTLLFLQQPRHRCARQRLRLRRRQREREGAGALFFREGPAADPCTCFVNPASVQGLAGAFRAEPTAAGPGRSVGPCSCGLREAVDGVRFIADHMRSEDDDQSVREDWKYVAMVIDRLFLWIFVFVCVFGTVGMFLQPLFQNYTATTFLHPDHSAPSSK
- Assay Overview: Displacement of [3H]epibatidine form alpha4beta2 nAChR in rat cortex
pKi: −log10 of the molar value.
Binary classification by pKi, with 10 as an inclusive lower bound for met; all other cases are not met.

• Brc1ccc(N2CC3CC(C2)N3)cn1 = met
• O=[N+]([O-])c1ccc(N2CC3CC(C2)N3)cc1 = not met
• Clc1ccc(N2CC3CC(C2)N3)cn1 = met
• CN1C2CC1CN(c1ccc(Cl)nc1)C2 = not met
